Every entry's value here was drawn from PubChem BioAssay (NCI).

System: ACHN renal
experimental_details: NCI tumour cell line growth inhibition, 48 h; in the data active = GI50 below about 0.43 µM; inactive = the rest
Respond using exactly one of the listed classes: 1 for active, -1 for inactive

Please review the following examples before continuing.
compound | group
COC(=O)c1ccc(CN2C(=O)C(Cl)=C(Nc3cccc(Cl)c3C)C2=O)cc1 | -1
CCN(CC)CCCNc1cc(OC)cc2nc3cc(Cl)ccc3nc12 | -1
COC(=O)C1=C(O)[C@H](C(=O)OC)C2(O)C(C(=O)OC)[C@H](c3ccc(OC(=O)C(C)c4ccc(CC(C)C)cc4)cc3)C[C@@H]1[C@@H]2C(=O)OC (stereo partly specified) | -1

Task: Which outcome was entered for the compound C[C@]12CC[C@H]3[C@@H](CC=C4C[C@@H](N5CCCC5)CC[C@@]43C)[C@@H]1C/C(=C\c1cccc(OCCN3CCOCC3)c1)[C@@H]2O in this test?
Output: -1

Task: Which outcome was entered for the compound O=C1CC(c2cccc(F)c2)Nc2cc3c(cc21)OCO3 (stereo unspecified) in this test?
Output: 1

Task: Which outcome was entered for the compound C[CH2][Ge]([CH2]C)([CH2]C)[O]C(=O)C(OC(C)=O)c1ccccc1 (stereo unspecified) in this test?
Output: -1

Task: Which outcome was entered for the compound COc1cc(/C=N/Nc2ncnc3c2cnn3-c2ccccc2)ccc1O in this test?
Output: -1

Task: Which outcome was entered for the compound O=C([CH-]C(=O)c1ccccc1)c1ccccc1.[CH-]1CCCCC1.[CH-]1CCCCC1.[CH-]1CCCCC1.[Sn+4] in this test?
Output: -1

Task: Which outcome was entered for the compound NCCCC[C@@H]1NC(=O)[C@H](CC(=O)O)NC(=O)CNC(=O)[C@H](CCCN=C(N)N)NC(=O)[C@@H](N)CSSC[C@@H](C(=O)O)NC(=O)[C@H](CC(=O)O)NC(=O)[C@@H]2CCCN2C(=O)CNC1=O in this test?
Output: -1

Task: Which outcome was entered for the compound CCN(CC)CCN1C(=O)c2c(c3c4ccccc4[nH]c3c3ccc4ccccc4c23)C1=O in this test?
Output: -1
